Where do these numbers come from? They come from ChEMBL document CHEMBL1151896.

# System: Mus musculus
# run description: Antiosteoporosis activity against ovariectomized ICR mouse assessed as serum ALP activity at 110.3 nmol/kg, po after 30 mins
# Assay type: functional
Numbered stars: 1 amine (or outer) side, 2 acyl side, 3 side chain; on linkers, the order of the positions; unused ones are H or OH. Bridge positions count the residues as written; N and C are the ends. Peptide text beside a SMILES is read from it. I, II: the chains in the order shown. * marks the point of attachment. Estradiol(3-OCH2CO,17-OSuc) = C[C@]12CC[C@@H]3c4ccc(OCC(=O)[*:1])cc4CC[C@H]3[C@@H]1CC[C@@H]2OC(=O)CCC(=O)[*:2]; Succinyl(O17-estradiol) = C[C@]12CC[C@@H]3c4ccc(O)cc4CC[C@H]3[C@@H]1CC[C@@H]2OC(=O)CCC(=O)*; Acetyl(estradiol-3-yloxy) = C[C@]12CC[C@@H]3c4ccc(OCC(=O)*)cc4CC[C@H]3[C@@H]1CC[C@@H]2O; X1 = C[C@]12CC[C@@H]3c4ccc(OCC(=O)*)cc4CC[C@H]3[C@@H]1CCC2=O
measurement kind: Activity (U/L)

molecule="C[C@]12CC[C@@H]3c4ccc(O)cc4CC[C@H]3[C@@H]1CC[C@@H]2OC(=O)CCC(=O)N[C@@H](CCCNC(=N)N)C(=O)NCC(=O)N[C@@H](CC(=O)O)C(=O)N[C@@H](Cc1ccccc1)C(=O)O ({Succinyl(O17-estradiol)}-RGDF-OH)" measurement_kind=Activity unit_symbol=U/L measured_value=23.18
molecule="CC(C)[C@H](NC(=O)[C@H](CC(=O)O)NC(=O)CNC(=O)[C@H](CCCNC(=N)N)NC(=O)COc1ccc2c(c1)CC[C@@H]1[C@@H]2CC[C@]2(C)[C@@H](O)CC[C@@H]12)C(=O)O ({Acetyl(estradiol-3-yloxy)}-RGDV-OH)" measurement_kind=Activity unit_symbol=U/L measured_value=26.01
molecule="C[C@]12CC[C@@H]3c4ccc(OCC(=O)N[C@@H](CCCNC(=N)N)C(=O)NCC(=O)N[C@@H](CC(=O)O)C(=O)N[C@@H](CO)C(=O)N[C@@H](CCCNC(=N)N)C(=O)NCC(=O)N[C@@H](CC(=O)O)C(=O)N[C@@H](CO)C(=O)O)cc4CC[C@H]3[C@@H]1CCC2=O (X1-RGDSRGDS-OH)" measurement_kind=Activity unit_symbol=U/L measured_value=13.8
molecule="C[C@]12CC[C@@H]3c4ccc(OCC(=O)N[C@@H](CCCNC(=N)N)C(=O)NCC(=O)N[C@@H](CC(=O)O)C(=O)N[C@@H](CO)C(=O)O)cc4CC[C@H]3[C@@H]1CC[C@@H]2O ({Acetyl(estradiol-3-yloxy)}-RGDS-OH)" measurement_kind=Activity unit_symbol=U/L measured_value=26.62
molecule="C[C@]12CC[C@@H]3c4ccc(OCC(=O)N[C@@H](CCCNC(=N)N)C(=O)NCC(=O)N[C@@H](CC(=O)O)C(=O)N[C@@H](CO)C(=O)O)cc4CC[C@H]3[C@@H]1CC[C@@H]2OC(=O)CCC(=O)N[C@@H](CCCNC(=N)N)C(=O)NCC(=O)N[C@@H](CC(=O)O)C(=O)N[C@@H](CO)C(=O)O (I: RGDS-OH / II: RGDS-OH; linker I:N-II:N via Estradiol(3-OCH2CO,17-OSuc))" measurement_kind=Activity unit_symbol=U/L measured_value=19.61
molecule="C[C@]12CC[C@@H]3c4ccc(OCC(=O)N[C@@H](CCCNC(=N)N)C(=O)NCC(=O)N[C@@H](CC(=O)O)C(=O)N[C@@H](Cc5ccccc5)C(=O)N[C@@H](CCCNC(=N)N)C(=O)NCC(=O)N[C@@H](CC(=O)O)C(=O)N[C@@H](Cc5ccccc5)C(=O)O)cc4CC[C@H]3[C@@H]1CCC2=O (X1-RGDFRGDF-OH)" measurement_kind=Activity unit_symbol=U/L measured_value=15.06
molecule="CC(C)[C@H](NC(=O)[C@H](CC(=O)O)NC(=O)CNC(=O)[C@H](CCCNC(=N)N)NC(=O)CCC(=O)O[C@H]1CC[C@H]2[C@@H]3CCc4cc(O)ccc4[C@H]3CC[C@]12C)C(=O)O ({Succinyl(O17-estradiol)}-RGDV-OH)" measurement_kind=Activity unit_symbol=U/L measured_value=22.96
molecule="C[C@]12CC[C@@H]3c4ccc(OCC(=O)N[C@@H](CCCNC(=N)N)C(=O)NCC(=O)N[C@@H](CC(=O)O)C(=O)N[C@@H](Cc5ccccc5)C(=O)O)cc4CC[C@H]3[C@@H]1CC[C@@H]2OC(=O)CCC(=O)N[C@@H](CCCNC(=N)N)C(=O)NCC(=O)N[C@@H](CC(=O)O)C(=O)N[C@@H](Cc1ccccc1)C(=O)O (I: RGDF-OH / II: RGDF-OH; linker I:N-II:N via Estradiol(3-OCH2CO,17-OSuc))" measurement_kind=Activity unit_symbol=U/L measured_value=15.8
molecule="CC(C)[C@H](NC(=O)[C@H](CC(=O)O)NC(=O)CNC(=O)[C@H](CCCNC(=N)N)NC(=O)[C@@H](NC(=O)[C@H](CC(=O)O)NC(=O)CNC(=O)[C@H](CCCNC(=N)N)NC(=O)COc1ccc2c(c1)CC[C@@H]1[C@@H]2CC[C@]2(C)C(=O)CC[C@@H]12)C(C)C)C(=O)O (X1-RGDVRGDV-OH)" measurement_kind=Activity unit_symbol=U/L measured_value=13.27
molecule="CC(C)[C@H](NC(=O)[C@H](CC(=O)O)NC(=O)CNC(=O)[C@H](CCCNC(=N)N)NC(=O)COc1ccc2c(c1)CC[C@@H]1[C@@H]2CC[C@]2(C)C(=O)CC[C@@H]12)C(=O)O (X1-RGDV-OH)" measurement_kind=Activity unit_symbol=U/L measured_value=17.42
molecule="C[C@]12CC[C@@H]3c4ccc(OCC(=O)N[C@@H](CCCNC(=N)N)C(=O)NCC(=O)N[C@@H](CC(=O)O)C(=O)N[C@@H](Cc5ccccc5)C(=O)O)cc4CC[C@H]3[C@@H]1CC[C@@H]2O ({Acetyl(estradiol-3-yloxy)}-RGDF-OH)" measurement_kind=Activity unit_symbol=U/L measured_value=25.42
molecule="C[C@]12CC[C@@H]3c4ccc(OCC(=O)N[C@@H](CCCNC(=N)N)C(=O)NCC(=O)N[C@@H](CC(=O)O)C(=O)N[C@@H](Cc5ccccc5)C(=O)O)cc4CC[C@H]3[C@@H]1CCC2=O (X1-RGDF-OH)" measurement_kind=Activity unit_symbol=U/L measured_value=16.42

====

# Test system: Mus musculus
# run description: Toxicity in ovariectomized ICR mouse assessed as effect on spleen weight at 110.3 nmol/kg, po after 4 weeks
# Type: organism-based
# condition parameters: in vivo, 672 h
Numbered stars: 1 amine (or outer) side, 2 acyl side, 3 side chain; on linkers, the order of the positions; unused ones are H or OH. Bridge positions count the residues as written; N and C are the ends. Peptide text beside a SMILES is read from it. I, II: the chains in the order shown. * marks the point of attachment. Estradiol(3-OCH2CO,17-OSuc) = C[C@]12CC[C@@H]3c4ccc(OCC(=O)[*:1])cc4CC[C@H]3[C@@H]1CC[C@@H]2OC(=O)CCC(=O)[*:2]; X1 = C[C@]12CC[C@@H]3c4ccc(OCC(=O)*)cc4CC[C@H]3[C@@H]1CCC2=O
measurement kind: Activity

molecule="C[C@]12CC[C@@H]3c4ccc(OCC(=O)N[C@@H](CCCNC(=N)N)C(=O)NCC(=O)N[C@@H](CC(=O)O)C(=O)N[C@@H](Cc5ccccc5)C(=O)O)cc4CC[C@H]3[C@@H]1CC[C@@H]2OC(=O)CCC(=O)N[C@@H](CCCNC(=N)N)C(=O)NCC(=O)N[C@@H](CC(=O)O)C(=O)N[C@@H](Cc1ccccc1)C(=O)O (I: RGDF-OH / II: RGDF-OH; linker I:N-II:N via Estradiol(3-OCH2CO,17-OSuc))" system_name="Mus musculus" measured_value=Non-toxic
molecule="CC(C)[C@H](NC(=O)[C@H](CC(=O)O)NC(=O)CNC(=O)[C@H](CCCNC(=N)N)NC(=O)CCC(=O)O[C@H]1CC[C@H]2[C@@H]3CCc4cc(OCC(=O)N[C@@H](CCCNC(=N)N)C(=O)NCC(=O)N[C@@H](CC(=O)O)C(=O)N[C@H](C(=O)O)C(C)C)ccc4[C@H]3CC[C@]12C)C(=O)O (I: RGDV-OH / II: RGDV-OH; linker I:N-II:N via Estradiol(3-OCH2CO,17-OSuc))" system_name="Mus musculus" measured_value=Non-toxic
molecule="C[C@]12CC[C@@H]3c4ccc(OCC(=O)N[C@@H](CCCNC(=N)N)C(=O)NCC(=O)N[C@@H](CC(=O)O)C(=O)N[C@@H](Cc5ccccc5)C(=O)N[C@@H](CCCNC(=N)N)C(=O)NCC(=O)N[C@@H](CC(=O)O)C(=O)N[C@@H](Cc5ccccc5)C(=O)O)cc4CC[C@H]3[C@@H]1CCC2=O (X1-RGDFRGDF-OH)" system_name="Mus musculus" measured_value=Non-toxic
